Reported Disaggregation % Aggregate reduction at 5 μM values for a set of compounds
# system.tested: Abeta:Zn (25:50 μM) Synthetic Aggregations (Homo sapiens)
# Construct: PB Compound Mediated Dissolution of Aggregated Abeta 1-42; purchased Keck Laboratory, Yale University School of Medicine
# Sequence (P05067 672-713 limits assumed): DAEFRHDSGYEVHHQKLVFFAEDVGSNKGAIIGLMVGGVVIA
# protocol.summary: Disaggregation of Abeta:Zn synthetic aggregates (ThT fluorescence)
# Type: biochemical
# test.settings: 5 μM test compound
Answer in %, number only, no unit symbol.

Some solved entries appear below for comparison.
1. CCCc1cnc2c(O)c(I)ccn2c1=O ... 57
2. CCCc1cnc2c(O)cccn2c1=O ... 49
3. O=C(Nc1nc2ccc(F)cc2s1)c1cnc2c(O)cccn2c1=O ... 22
4. Cc1ccccc1-c1cc(I)c(O)c2ncccc12 ... 31.4
5. CC(C)c1cnc2c(O)cccn2c1=O ... 31

Please report the measured Disaggregation % Aggregate reduction at 5 μM for "CN(C)Cc1ccc2c(Cl)cc(I)c(O)c2n1"
79

---

# Test system: dityrosine oligomerization
# protocol.summary: CuTy: inhibition of dityrosine oligomerization
# Format: biochemical
# test.settings: referenced to in-house standard (set as 100% inhibition)
assay.metric: CuTy % inhibition of dityrosine oligomerization

1. Br.CCN(CC)Cc1nc2c(O)c(Cl)cc(Cl)c2c(=O)[nH]1 ... CuTy: 100% inhibition
2. Br.CN(C)Cc1nc2c(O)c(Cl)cc(Cl)c2c(=O)[nH]1 ... CuTy: 100% inhibition

---

# Test system: dityrosine oligomerization
# protocol.summary: CuTy: inhibition of dityrosine oligomerization
# Type: biochemical
# test.settings: referenced to in-house standard (set as 100% inhibition)
assay.metric: CuTy % inhibition of dityrosine oligomerization

Some solved entries appear below for comparison.
1) O=c1c2c(Cl)cc(Cl)c(O)c2ncn1Cc1nccs1 ... CuTy: 90% inhibition
2) O=c1c2c(Cl)cc(Cl)c(O)c2ncn1CC1CC1 ... 100% inhibit
3) O=C(O)Cn1cnc2c(O)c(Cl)cc(Cl)c2c1=O ... CuTy: 100% inhibition
4) CN(C)Cc1ccc2c(Cl)cc(Cl)c(O)c2n1.Cl ... 100%
5) O=c1c2c(Cl)cc(Cl)c(O)c2ncn1CCNCc1ccncc1 ... CuTy: 100% inhibition

Please report the measured CuTy % inhibition of dityrosine oligomerization for "O=c1c2c(Cl)cc(Cl)c(O)c2ncn1Cc1nc2ccccc2s1"
CuTy: 60% inhibition

Please report the measured CuTy % inhibition of dityrosine oligomerization for "CCc1c(O)c(=O)ccn1CC.Cl"
CuTy: 80% inhibition

Please report the measured CuTy % inhibition of dityrosine oligomerization for "O=c1c2c(Cl)cc(Cl)c(O)c2ncn1Cc1ccccn1"
CuTy: 50% inhibition

Please report the measured CuTy % inhibition of dityrosine oligomerization for "CCc1cnc2c(O)c(I)ccn2c1=O"
25% inhibit

Please report the measured CuTy % inhibition of dityrosine oligomerization for "O=c1c2c(Cl)cc(Cl)c(O)c2ncn1-c1ccccn1"
CuTy: 50% inhibition

Please report the measured CuTy % inhibition of dityrosine oligomerization for "Cn1ccnc1Cn1cnc2c(O)c(Cl)cc(Cl)c2c1=O"
CuTy: 60% inhibition

Please report the measured CuTy % inhibition of dityrosine oligomerization for "O=c1c2c(Cl)cc(Cl)c(O)c2ncn1Nc1ccc(F)cc1F"
CuTy: 10% inhibition

Please report the measured CuTy % inhibition of dityrosine oligomerization for "Nc1cc(Cn2cnc3c(O)c(Cl)cc(Cl)c3c2=O)ccn1"
CuTy: 80% inhibition

Please report the measured CuTy % inhibition of dityrosine oligomerization for "Cc1noc(C)c1Cn1cnc2c(O)c(Cl)cc(Cl)c2c1=O"
CuTy: 90% inhibition

Please report the measured CuTy % inhibition of dityrosine oligomerization for "CN(C)Cc1nc2c(O)c(Cl)cc(Cl)c2c(=O)n1CC1CC1.Cl"
CuTy: 110% inhibition

Please report the measured CuTy % inhibition of dityrosine oligomerization for "Br.CN(C)Cc1nc2c(O)c(Cl)cc(Cl)c2c(=O)n1C"
CuTy: 110% inhibition

Please report the measured CuTy % inhibition of dityrosine oligomerization for "CCCc1cnc2c(O)cccn2c1=O"
CuTy: 95% inhibition

Please report the measured CuTy % inhibition of dityrosine oligomerization for "CCCCNC(=O)c1cnc2c(O)c(I)ccn2c1=O"
CuTy: 95% inhibition

Please report the measured CuTy % inhibition of dityrosine oligomerization for "O=c1c2c(Cl)cc(Cl)c(O)c2ncn1Cc1ccncc1"
CuTy: 80% inhibition

Please report the measured CuTy % inhibition of dityrosine oligomerization for "CC(C)Cn1c(CN(C)C)nc2c(O)c(Cl)cc(Cl)c2c1=O.Cl"
CuTy: 50% inhibition

Please report the measured CuTy % inhibition of dityrosine oligomerization for "O=c1c2c(Cl)cc(Cl)c(O)c2ncn1Cc1cn2ccccc2n1"
CuTy: 50% inhibition
